Collected pIC50 values appear next to each entry.
# EXPERIMENTAL PROTOCOL: Antiproliferative activity against human BGC823 cells after 48 hrs by MTT assay
# Type: functional, cell-based
# CONDITION: BGC-823, 48 h
pIC50: −log10 of the molar value.
MEASURED PARAMETER: pIC50

• CC(C)(O)CCC[C@@](C)(O)[C@H]1CC[C@]2(C)[C@@H]1[C@H](O)C[C@@H]1[C@@]3(C)CC[C@H](OC(=O)[C@@H](N)Cc4cnc[nH]4)C(C)(C)[C@@H]3CC[C@]12C = 4.92
• CC(C)(O)CCC[C@@](C)(O)[C@H]1CC[C@]2(C)[C@@H]1[C@H](O)C[C@@H]1[C@@]3(C)CC[C@H](OC(=O)[C@@H](N)CCCNC(=N)N)C(C)(C)[C@@H]3CC[C@]12C = 5.34
• CC[C@H](C)[C@H](NC(=O)OC(C)(C)C)C(=O)O[C@H]1CC[C@]2(C)[C@H]3C[C@@H](O)[C@@H]4[C@@H]([C@](C)(O)CCCC(C)(C)O)CC[C@@]4(C)[C@]3(C)CC[C@H]2C1(C)C = 4.66
• CC(C)(O)CCC[C@@](C)(O)[C@H]1CC[C@]2(C)[C@@H]1[C@H](OC(=O)[C@H](Cc1cnc[nH]1)NC(=O)OC(C)(C)C)C[C@@H]1[C@@]3(C)CC[C@H](O)C(C)(C)[C@@H]3CC[C@]12C = 4.42
• O=c1[nH]cc(F)c(=O)[nH]1 = 4.43
• C[C@@H](O)[C@H](N)C(=O)O[C@H]1CC[C@]2(C)[C@H]3C[C@@H](O)[C@@H]4[C@@H]([C@](C)(O)CCCC(C)(C)O)CC[C@@]4(C)[C@]3(C)CC[C@H]2C1(C)C = 4.96
• CC(C)C[C@H](NC(=O)OC(C)(C)C)C(=O)O[C@H]1CC[C@]2(C)[C@H]3C[C@@H](O)[C@@H]4[C@@H]([C@](C)(O)CCCC(C)(C)O)CC[C@@]4(C)[C@]3(C)CC[C@H]2C1(C)C = 4.62
• CC(C)(O)CCC[C@@](C)(O)[C@H]1CC[C@]2(C)[C@@H]1[C@H](O)C[C@@H]1[C@@]3(C)CC[C@H](OC(=O)[C@H](CO)NC(=O)OC(C)(C)C)C(C)(C)[C@@H]3CC[C@]12C = 4.68
• CC(C)(O)CCC[C@@](C)(O)[C@H]1CC[C@]2(C)[C@@H]1[C@H](O)C[C@@H]1[C@@]3(C)CC[C@H](OC(=O)[C@H](CCC(=O)OCc4ccccc4)NC(=O)OC(C)(C)C)C(C)(C)[C@@H]3CC[C@]12C = 4.64

These data points were gathered from ChEMBL document CHEMBL3769368.
